Source of measurements: patent US9290465B2

# testSystem: SCD1 (Mus musculus, UniProt P13516)
# Construct: Mouse liver microsomes, prepared from mice fed a high-carbohydrate diet, were a source of the SCD; from tissue; host or cells: mouse liver microsomes (mice fed a high-carbohydrate diet)
# Sequence (P13516 whole entry): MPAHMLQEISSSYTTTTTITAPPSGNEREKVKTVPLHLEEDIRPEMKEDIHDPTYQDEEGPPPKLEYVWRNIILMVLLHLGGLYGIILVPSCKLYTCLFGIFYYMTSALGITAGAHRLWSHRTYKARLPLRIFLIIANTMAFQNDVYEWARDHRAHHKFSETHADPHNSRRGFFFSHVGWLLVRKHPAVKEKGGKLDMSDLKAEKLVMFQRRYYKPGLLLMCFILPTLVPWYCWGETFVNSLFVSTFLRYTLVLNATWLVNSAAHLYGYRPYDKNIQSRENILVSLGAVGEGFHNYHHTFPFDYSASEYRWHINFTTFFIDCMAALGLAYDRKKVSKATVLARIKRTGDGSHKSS
# experiment: SCD assay: release of tritiated water from desaturation of 9,10-3H-stearoyl CoA, mouse liver microsomes
# Format: biochemical
# assaySetup: mouse liver microsomes as SCD source; 300 nM (9,10) 3H-stearoyl CoA; 25 minutes at rt; read-out: IC50 (nM), in vitro inhibition of SCD1
Where a name gives a salt, the structure may show the parent alone.
measurementName: IC50 (nM)
Numbers only, in nM.

[
  {
    "molecule": "Cc1onc(-c2ccc(OCc3ccc(S(C)(=O)=O)cc3)cc2)c1N [Example 13]",
    "IC50 [nM]": 864
  },
  {
    "molecule": "Nc1conc1-c1ccc(OCc2ccc([N+](=O)[O-])cc2)cc1 [Example 16, hydrochloride]",
    "IC50 [nM]": 264
  },
  {
    "molecule": "Nc1conc1-c1ccc(OCc2ccc(C(F)(F)F)cc2)cc1 [Example 19, hydrochloride]",
    "IC50 [nM]": 391
  }
]

Now for the molecule whose IC50 we want.
input: Write down the reported IC50 (system: SCD1 (Mus musculus, UniProt P13516)) of CS(=O)(=O)c1ccc(COc2ccc(-c3nocc3N)cc2)c(Cl)c1 [Example 8]
output: 191
